These entries and their values trace back to paper PMC3356326.

Experiment: Static PET image quantification of tissue uptake at 60 min (last frame of dynamic scan)
Assay type: in vivo
Details: female, athymic nude, mouse, liver, iv, 3.7 MBq, total radioactivity, U87MG tumor-bearing mice; tail-vein injection ~3.7 MBq; static PET image at 1 h; mean ± SD, n = 4/group; read-out: Tissue uptake, Liver
Method: The U87MG human glioblastoma tumor model, which has been documented to express high level of integrin αvβ3 [32], was selected for PET imaging. […] Tumor growth was monitored by caliper measurements of perpendicular axes of the tumor three times a week after the tumors are palpable. The tumor volume was determined as the formula: V = a×(b^2)/2, where a and b are the length and width of each tumor, respectively, in mm. […]
Recorded measurements of tissue uptake at 1 h, one per entry
Field: numeric (%ID/g). Do not append units.

CC(F)C(=O)NCCOCCOCCOCC(=O)N[C@@H](CCC(=O)NCCCC[C@@H]1NC(=O)[C@@H](Cc2ccc(O)cc2)NC(=O)[C@H](CC(=O)O)NC(=O)CNC(=O)[C@H](CCCNC(=N)N)NC1=O)C(=O)NCCCC[C@@H]1NC(=O)[C@@H](Cc2ccc(O)cc2)NC(=O)[C@H](CC(=O)O)NC(=O)CNC(=O)[C@H](CCCNC(=N)N)NC1=O (some centres unmarked) [[^18F]FPPRGD2, reference compound] | 1.1

Note: attention shifts to another entry.
Given N=C(N)NCCC[C@@H]1NC(=O)[C@H](CCCCNC(=O)CC[C@H](NC(=O)COCCOCCOCCNC(=S)Nc2ccc(C[C@H]3CN(CC(=O)O)CCN(CC(=O)O)CCN3CC(=O)O)cc2)C(=O)NCCCC[C@@H]2NC(=O)[C@@H](Cc3ccc(O)cc3)NC(=O)[C@H](CC(=O)O)NC(=O)CNC(=O)[C@H](CCCNC(=N)N)NC2=O)NC(=O)[C@@H](Cc2ccc(O)cc2)NC(=O)[C@H](CC(=O)O)NC(=O)CNC1=O [[^18F]AlF-NOTA-PRGD2] , state its recorded tissue uptake at 1 h.
1.21

====

Consider the following molecules and their measured tissue uptake at 1 h readings.
Assay: Static PET image quantification of tissue uptake at 60 min (last frame of dynamic scan)
Type: in vivo
Details: female, athymic nude, mouse, kidneys, iv, 3.7 MBq, total radioactivity, U87MG tumor-bearing mice; tail-vein injection ~3.7 MBq; static PET image at 1 h; mean ± SD, n = 4/group; read-out: Tissue uptake, Kidneys

What does the data say about its tissue uptake at 1 h? Entry: N=C(N)NCCC[C@@H]1NC(=O)[C@H](CCCCNC(=O)CC[C@H](NC(=O)COCCOCCOCCNC(=S)Nc2ccc(C[C@H]3CN(CC(=O)O)CCN(CC(=O)O)CCN3CC(=O)O)cc2)C(=O)NCCCC[C@@H]2NC(=O)[C@@H](Cc3ccc(O)cc3)NC(=O)[C@H](CC(=O)O)NC(=O)CNC(=O)[C@H](CCCNC(=N)N)NC2=O)NC(=O)[C@@H](Cc2ccc(O)cc2)NC(=O)[C@H](CC(=O)O)NC(=O)CNC1=O [[^18F]AlF-NOTA-PRGD2]
4.67 %ID/g

May I ask what tissue uptake at 1 h has been recorded for CC(F)C(=O)NCCOCCOCCOCC(=O)N[C@@H](CCC(=O)NCCCC[C@@H]1NC(=O)[C@@H](Cc2ccc(O)cc2)NC(=O)[C@H](CC(=O)O)NC(=O)CNC(=O)[C@H](CCCNC(=N)N)NC1=O)C(=O)NCCCC[C@@H]1NC(=O)[C@@H](Cc2ccc(O)cc2)NC(=O)[C@H](CC(=O)O)NC(=O)CNC(=O)[C@H](CCCNC(=N)N)NC1=O (some centres unmarked) [[^18F]FPPRGD2, reference compound] ?
2.78 %ID/g
